Recorded GI50 for the following compounds
# Tested on: MDA-MB-468 breast
# Assay name: NCI tumour cell line growth inhibition, 48 h

INSERT INTO measurements (compound, value_type, reported_result) VALUES
  ('Cc1cc(NC(=O)NC(=O)c2ccccc2N)ccc1Oc1ncc(Br)cn1', 'GI50', '< 0.01 µM'),
  ('N#CC1=C(c2cccs2)Nc2c(c(-c3ccccc3)nn2-c2ccccc2)C12C(=O)Nc1ccccc12 (stereo not given)', 'GI50', '11.4 µM'),
  ('CN(c1ccc(NC(=O)Nc2ccc(OC(F)(F)F)cc2)cc1)c1ccnc(Nc2cccc(S(N)(=O)=O)c2)n1', 'GI50', '3.93 µM');

Data request: Record request: GI50 value, item CCCCCCCCCCCCCCCC[N+](C)(C)CCN(Cc1ccc(OC)cc1)c1ncccn1
Data returned: 1.04 µM
